- study target: human NKp46 (full length, on cells) (human, UniProt O76036 22-304); further: unit not given here
- Sequence (O76036 22-304 Q82K): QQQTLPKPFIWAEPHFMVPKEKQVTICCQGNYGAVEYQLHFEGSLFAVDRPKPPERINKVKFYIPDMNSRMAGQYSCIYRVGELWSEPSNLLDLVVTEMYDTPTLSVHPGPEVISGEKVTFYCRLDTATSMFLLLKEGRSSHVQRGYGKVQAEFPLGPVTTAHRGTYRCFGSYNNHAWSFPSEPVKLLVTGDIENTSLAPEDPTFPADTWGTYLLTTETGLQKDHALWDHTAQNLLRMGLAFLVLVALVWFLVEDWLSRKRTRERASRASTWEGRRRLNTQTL
- assay text: cell-based or functional assay
quantity measured: Top mean fluorescence intensity (Top MFI), NK cell activation (CD107a)
# print the numeric value only

[
  {
    "binder": "H4-PA31 humanized antibody (antibody, human IgG1, V domains shown, not shown: constant region of human IgG1) VH: EVQLVESGGGLVQPGGSLRLSCAVSGRTFSRLPMGWFRQAPGKDREFVAAISWSSSTTYYADSVKGRFTISRDNSKNTAYLQMNSLRAEDTAVYYCAAVGGSLDYSATVVYTAARAYADWGQGTLVTVSS",
    "result": 34.1
  }
]

Q. Recall and state the measured Top mean fluorescence intensity (Top MFI), NK cell activation (CD107a) for H4-PC11 humanized antibody (antibody, human IgG1, V domains shown, not shown: constant region of human IgG1) VH: EVQLVESGGGLVQPGGSLRLSCAPSPYSANSFSMAWFRQAPGKGREGIACIQAESGSTNVAPSVKGRFTISQDNSKNTLYLQMNSLRAEDTAVYYCAAFKRNVGGCELRPEHWRFWGQGTLVTVSS .
A. 19.3

Q. Recall and state the measured Top mean fluorescence intensity (Top MFI), NK cell activation (CD107a) for H3-PA27 humanized antibody (antibody, human IgG1, V domains shown, not shown: constant region of human IgG1) VH: QVQLVESGGGVVQPGRSLRLSCAASGRTESWYRMGWFRQAPGKGREVVARISGDTNIKYYAGSVKGRFTISRDNSKNTLYLQMSSLRAEDTAVYYCAADRTGATWDYWGQGTLVTVSS .
A. 14.4

Q. Recall and state the measured Top mean fluorescence intensity (Top MFI), NK cell activation (CD107a) for H3-PA45 humanized antibody (antibody, V domains shown, not shown: constant region of human IgG1) VH: EVQLVESGGGLVQPGGSLRLSCAASGRTFSRLPMAWFRQAPGKGREFVAAISWSGGSTYYADSMKGRFTISRDNSKNTAYLQMNSLRAEDTAVYYCAAVGDSAPYSATIVYTDARAYAYWGQGTLVTVSS .
A. 34
